# Test system: Salmonella typhimurium ATCC 14028
# EXPERIMENT: Sensitization to erythromycin, novobiocin or rifampicin (permeabilization, FIC)
# Format: cell-based
# EXPERIMENTAL_CONDITIONS: Table 13; with rifampicin (order of b151); Salmonella typhimurium ATCC 14028^b (footnote b not given)
PROPERTY: concentration required for bacterial growth inhibition (µg/mL)

[
  {
    "COMPOUND_STRUCTURE_STRING": "C[C@]12CC[C@@H](OCCCN)C[C@H]1C[C@@H](OCCCN)[C@@H]1[C@@H]2C[C@H](OCCCN)[C@]2(C)[C@@H](O)CC[C@@H]12",
    "UNITS_OF_MEASURE": "µg/mL",
    "RECORDED_NUMBER": 1.4
  },
  {
    "COMPOUND_STRUCTURE_STRING": "C[C@H](CCCN(C)Cc1ccccc1)[C@H]1CC[C@H]2[C@@H]3[C@H](OCCN)C[C@@H]4C[C@H](OCCN)CC[C@]4(C)[C@H]3C[C@H](OCCN)[C@]12C",
    "UNITS_OF_MEASURE": "µg/mL",
    "RECORDED_NUMBER": 0.84
  },
  {
    "COMPOUND_STRUCTURE_STRING": "CCCOCCC[C@@H](C)[C@H]1CC[C@H]2[C@@H]3[C@H](OCCCN)C[C@@H]4C[C@H](OCCCN)CC[C@]4(C)[C@H]3C[C@H](OCCCN)[C@]12C",
    "UNITS_OF_MEASURE": "µg/mL",
    "RECORDED_NUMBER": 0.10
  },
  {
    "COMPOUND_STRUCTURE_STRING": "C[C@H](CCCO)[C@H]1CC[C@H]2[C@@H]3[C@H](OCCCN)C[C@@H]4C[C@H](OCCCN)CC[C@]4(C)[C@H]3C[C@H](OCCCN)[C@]12C",
    "UNITS_OF_MEASURE": "µg/mL",
    "RECORDED_NUMBER": 0.55
  },
  {
    "COMPOUND_STRUCTURE_STRING": "C[C@H](CCCN(C)Cc1ccccc1)[C@H]1CC[C@H]2[C@@H]3[C@H](OCCCN)C[C@@H]4C[C@H](OCCCN)CC[C@]4(C)[C@H]3C[C@H](OCCCN)[C@]12C",
    "UNITS_OF_MEASURE": "µg/mL",
    "RECORDED_NUMBER": 0.39
  }
]

All values here come from patent EP1311531B1.
